test: chemical genetic growth profiling, strain panel (AID 1159580);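 further: tested at 20 µM; growth read once vehicle control cultures reached saturation at 30 °C; lower values mean less growth of the strain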; details: S. cerevisiae deletion strains, growth OD, locus YBL105C, strain PKC1
The whole screen tested about 5,500 compounds, of which about 2,000 (36%) were called active. Inconclusive results (about 18%) are left out. No stated cut-off is given here; in the data, active means normalized growth mostly below about 0.91 (no sharp cut-off); inconclusive means no clear call, values can overlap the other calls; inactive means mostly above about 0.92. This is one part of the list.
A correct response names exactly one class from yes (active), no (inactive)

Example entries begin here.
Compound | Group
O=C1OC(Nc2ccccc2SCc2ccccc2Cl)c2ccccc21 (centres undefined) | no
CC1CCc2c(sc3ncnc(Sc4ccccc4)c23)C1 (centres undefined) | no
FC(F)(F)c1ccc(C2Sc3ccccc3N=C3c4ccccc4CC32)cc1 (centres undefined) | no
CC(C)(C)c1cc(C(=O)/C(C#N)=N\Nc2ccc(Cl)cc2)no1 | no
CN(NC(=S)Nc1cc(Cl)ccc1Cl)c1ccc(C(F)(F)F)cc1[N+](=O)[O-] | no
CSc1nc(Sc2n[nH]c(-c3ccccc3)n2)cc(Sc2n[nH]c(-c3ccccc3)n2)n1 | no
CSc1sc(-c2ccn[nH]2)c(-c2ccccc2)c1C#N | no
CN(C)c1nc(=S)ss1 | no

Task: Please share the test call associated with O=C(NCc1ccc(F)c(Cl)c1)Nc1csc([N+](=O)[O-])c1 .
Output: no

Task: Which outcome did this test record for the compound CCOC(=O)C1C(c2ccc(Br)cc2)C(C(=O)OCC)C(O)(C(F)(F)F)NC1(O)C(F)(F)F (centres undefined) ?
Output: no

Task: Identify the outcome logged in this assay for the compound shown: Oc1ccc(-n2nnnc2SCc2ccc(OC(F)(F)F)cc2)cc1
Output: no

Task: Query: recorded result category for N#C/C(=N/Nc1ccc(Cl)cc1)C(N)=S in this test
Output: yes

Task: What was the test verdict on N#C/C(=C\c1ccc(C(F)(F)F)cc1)c1ccc(O)cc1 ?
Output: no

Task: Which outcome was assigned to O=C(Nc1ccc(OC(F)(F)F)cc1)Nc1cncc(C(F)(F)F)c1 in this test?
Output: no

Task: Outcome logged for CC(Oc1ccc(Cl)cc1Cl)C(=O)NNC(=S)Nc1ccccc1 (centres undefined) in this assay:
Output: no

Task: # fetch the recorded call for N#CC(C#N)=NNc1cc(C(F)(F)F)ccc1OCC(F)(F)F here
Output: no

Task: Record lookup: outcome of this test for N#C/C(=N/Nc1ccc(C(F)(F)F)cc1)C(=O)C1CC1 ?
Output: no

Task: How did this test come out for Cc1nn(Cc2cccc(C(=O)O/N=C(/N)c3ccc(Cl)cc3)c2)c(C)c1Br ?
Output: no

Task: Which result was noted for this compound in the test: N#CC(C#N)=NNc1ccc(C(F)(F)F)cc1
Output: yes
